// data source = patent US20210388081A1

system_name: T1, FcRL2, overexpressed on 3T3 cells (UniProt Q96LA5 20-508, limits assumed)
T1 construct: whole, on cells
T1 sequence (looked up): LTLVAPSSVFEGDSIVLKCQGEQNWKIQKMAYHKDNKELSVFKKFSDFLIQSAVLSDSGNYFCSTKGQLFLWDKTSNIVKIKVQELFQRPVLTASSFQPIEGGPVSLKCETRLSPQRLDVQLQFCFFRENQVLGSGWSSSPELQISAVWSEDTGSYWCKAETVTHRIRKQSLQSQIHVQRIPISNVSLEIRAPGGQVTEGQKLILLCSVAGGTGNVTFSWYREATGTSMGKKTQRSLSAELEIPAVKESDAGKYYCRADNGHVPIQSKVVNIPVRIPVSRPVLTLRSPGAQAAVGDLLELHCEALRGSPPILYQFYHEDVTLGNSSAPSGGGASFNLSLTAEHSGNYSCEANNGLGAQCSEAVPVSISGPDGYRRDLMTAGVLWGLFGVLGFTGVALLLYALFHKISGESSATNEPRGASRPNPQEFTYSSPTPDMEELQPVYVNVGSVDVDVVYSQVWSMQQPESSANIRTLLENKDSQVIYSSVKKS
procedure_summary: phage clone on 3T3-FcRL2 cells
readout_kind: binding result

INSERT INTO measurements (binder, readout_kind, result) VALUES
  ('ET200-028 (scFv, screened as phage clone; entry is VL-linker-VH-His tag-HA tag) scFv: QSVLTQPPAASGTPGQRVTISCSGGVSNIGSGALNWYQQLPGTAPKLLIYSYNQRPSGVSDRFSGSRSATSASLAISGLQSEDEADYYCATWDDSVNGWVFGGGTKLTVLGSRGGGGSGGGGSGGGGSLEMAQVQLVQSGAEVKKPGDSVKVSCKPSGYNFLNYGINWVRQAPGQGLEWMGWISTYTGNTNYAQKLQGRVTFTTDTSTSTAYMEMRSLRSDDTAVYYCARDLYYYEGVDYWGQGTLVTVSSTSGQAGQHHHHHHGAYPYDVPDYAS', 'binding result', 'no binding'),
  ('ET200-008 (scFv, screened as phage clone; entry is VL-linker-VH-His tag-HA tag) scFv: QSALTQPASVSGSPGQSITISCTGTSSDVGGYNYVSWYQQHPGKAPKLMIYDVSNRPSGVSNRFSGSKSGNTASLTISGLQAEDEADYYCSSYTSSSTSKVFGGGTKLTVLGSRGGGGSGGGGSGGGGSLEMAEVQLVESGGGVVRPGGSLRLSCAASGFTFGDYGMSWVRQAPGKGLEWVSGINWNGGSTGYADSVKGRFTISRDNAKNSLYLQMNSLRAEDTAVYYCARSKYNFHVYYDYWGQGTLVTVSSTSGQAGQHHHHHHGAYPYDVPDYAS', 'binding result', 'no binding'),
  ('ET200-038 (scFv, screened as phage clone; entry is VL-linker-VH-His tag-HA tag) scFv: QSVLTQPPSVSGAPGQRVTISCTGSSSNIGAGFDVHWYQLLPGTAPKLLIYANSNRPSGVPDRFSGSKSGTSASLAITGLLAEDEADYYCQSYDSSLSGVVFGGGTKLTVLGSRGGGGSGGGGSGGGGSLEMAQVQLVQSGAEVKKPGSSVKVSCKASGGTFSSYAISWVRQAPGQGLEWMGGIIPIFGTANYAQKFQGRVTITADESTSTAYMELSSLRSEDTAVYYCARGASFDRHDNWGQGTLVTVSSTSGQAGQHHHHHHGAYPYDVPDYAS', 'binding result', 'no binding');
